- system: T1, CRBN, Q96SW2;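 further: pooled lentiviral library of zinc finger degron-EGFP fusions in mCherry-positive Jurkat cells, FACS-sorted after compound exposure, with degron abundance counted by next-generation sequencing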
- T1 chain: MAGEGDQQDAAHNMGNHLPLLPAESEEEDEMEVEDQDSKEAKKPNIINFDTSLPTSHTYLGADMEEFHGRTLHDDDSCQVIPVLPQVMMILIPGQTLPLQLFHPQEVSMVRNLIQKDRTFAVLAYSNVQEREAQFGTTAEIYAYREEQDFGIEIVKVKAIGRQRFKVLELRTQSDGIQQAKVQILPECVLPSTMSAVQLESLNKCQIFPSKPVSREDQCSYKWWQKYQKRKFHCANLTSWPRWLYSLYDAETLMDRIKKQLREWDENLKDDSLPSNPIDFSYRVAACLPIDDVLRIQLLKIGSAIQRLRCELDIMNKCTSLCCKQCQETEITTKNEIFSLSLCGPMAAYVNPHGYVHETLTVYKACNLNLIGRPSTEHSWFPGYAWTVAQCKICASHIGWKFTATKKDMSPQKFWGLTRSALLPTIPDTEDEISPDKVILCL
- experiment-summary: log2 fold change of degron read counts, EGFP-low vs EGFP+ sorted cells (limma voom), compound-induced degradation; higher = more compound-induced degradation of the degron-EGFP fusion; degrons are variants of IKZF1/3 zinc finger 2; compound dose not given here
- reported-conditions: Jurkat; 18 h; compound: compound 33 (diphenyl IMiD analogue)
Over roughly 8,300 sequences, “log2 fold change of degron read counts, EGFP-low vs EGFP+ sorted cells (limma voom), compound-induced degradation” has its median near -1.1; the highest 2% begin near 3.2. What follows is part of a selection rich in the highest values, with near analogues and random picks from the rest.
endpoint: log2 fold change of degron read counts
Numbers only.

Here's what some known entries look like.
For FSCSVCGHQFTQKGNLLRHIKL [46F_47S_49S_50V_52G_53H_54Q_55F_67L_, Q9UKT9] , what is its reported log2 fold change of degron read counts?
-2.86

Quick one: FFCDICGACFTQKGNLLRHIKL [46F_47F_49D_50I_52G_53A_54C_55F_67L_, Q9UKT9]
1.33

Quick one: FCCPQCGANFTQKGNLLRHIKL [46F_47C_49P_50Q_52G_53A_54N_55F_67L_, Q9UKT9]
0.128

Quick one: FCCPICGANFTQKGNLLRHIKL [46F_47C_49P_50I_52G_53A_54N_55F_67L_, Q9UKT9]
2.33

Quick one: FHCDICGACFTQKGNLLRHIKL [46F_47H_49D_50I_52G_53A_54C_55F_67L_, Q9UKT9]
-0.205

For each of the items listed, what is its log2 fold change of degron read counts?
1. FECDICGACFTQKGNLLRHIKL [46F_47E_49D_50I_52G_53A_54C_55F_67L_, Q9UKT9]
2. FACDICGACFTQKGNLLRHIKL [46F_47A_49D_50I_52G_53A_54C_55F_67L_, Q9UKT9]

[0.061, -0.194]
